Source listed as patent US20250051344A1.

target-system: SMARCA2 (Homo sapiens, UniProt P51531)
Construct: endogenous in cells
Sequence (P51531 whole entry, species assumed): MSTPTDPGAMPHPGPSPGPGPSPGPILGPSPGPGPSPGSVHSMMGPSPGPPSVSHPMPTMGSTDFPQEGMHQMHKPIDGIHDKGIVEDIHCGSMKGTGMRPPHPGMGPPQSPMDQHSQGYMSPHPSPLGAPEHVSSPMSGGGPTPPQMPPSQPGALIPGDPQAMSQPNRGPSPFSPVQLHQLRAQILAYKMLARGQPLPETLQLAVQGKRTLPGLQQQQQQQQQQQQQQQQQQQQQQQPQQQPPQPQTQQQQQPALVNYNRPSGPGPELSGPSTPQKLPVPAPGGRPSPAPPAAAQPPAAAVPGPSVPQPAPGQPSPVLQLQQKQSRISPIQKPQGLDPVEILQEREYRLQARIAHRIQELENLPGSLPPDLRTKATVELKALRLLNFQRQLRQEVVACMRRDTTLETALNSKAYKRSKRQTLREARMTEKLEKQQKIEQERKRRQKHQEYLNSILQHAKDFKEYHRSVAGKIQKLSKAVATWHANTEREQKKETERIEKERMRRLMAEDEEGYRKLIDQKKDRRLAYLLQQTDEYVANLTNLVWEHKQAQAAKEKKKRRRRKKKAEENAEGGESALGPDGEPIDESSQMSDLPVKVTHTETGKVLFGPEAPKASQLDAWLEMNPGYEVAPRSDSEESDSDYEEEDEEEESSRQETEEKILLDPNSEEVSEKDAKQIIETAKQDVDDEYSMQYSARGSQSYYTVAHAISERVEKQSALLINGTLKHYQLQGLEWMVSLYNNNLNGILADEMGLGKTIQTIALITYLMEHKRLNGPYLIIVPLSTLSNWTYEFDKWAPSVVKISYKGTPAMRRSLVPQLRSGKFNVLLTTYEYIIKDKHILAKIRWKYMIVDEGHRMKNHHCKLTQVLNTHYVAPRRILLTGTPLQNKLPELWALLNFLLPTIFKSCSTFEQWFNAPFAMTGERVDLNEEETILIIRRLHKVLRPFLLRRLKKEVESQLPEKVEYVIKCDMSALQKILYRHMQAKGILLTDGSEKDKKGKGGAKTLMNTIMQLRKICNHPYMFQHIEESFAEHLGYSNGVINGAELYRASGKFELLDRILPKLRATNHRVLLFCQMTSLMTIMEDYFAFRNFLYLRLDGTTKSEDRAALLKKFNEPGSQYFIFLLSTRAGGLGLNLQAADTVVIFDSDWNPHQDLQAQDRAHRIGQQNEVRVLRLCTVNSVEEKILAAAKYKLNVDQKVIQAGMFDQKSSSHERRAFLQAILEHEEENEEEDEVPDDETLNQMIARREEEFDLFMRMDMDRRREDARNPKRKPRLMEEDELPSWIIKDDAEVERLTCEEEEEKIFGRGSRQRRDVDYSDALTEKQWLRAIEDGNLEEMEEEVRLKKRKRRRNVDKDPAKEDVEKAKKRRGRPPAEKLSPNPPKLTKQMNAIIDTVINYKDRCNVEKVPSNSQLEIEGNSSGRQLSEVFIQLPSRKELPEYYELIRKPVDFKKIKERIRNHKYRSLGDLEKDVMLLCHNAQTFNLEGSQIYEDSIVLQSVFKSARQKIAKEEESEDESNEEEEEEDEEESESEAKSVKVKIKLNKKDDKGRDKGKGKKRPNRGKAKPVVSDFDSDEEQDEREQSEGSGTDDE
experiment: SMARCA2 Cellular Degradation Assay (Western blot analysis on Jess platform)
Assay type: cell-based
details: cellular degradation
metric-name: DC50 (nM)
The response must be a number in nM with no trailing unit.

Data request: Which DC50 reading was recorded for the molecule Cn1c(=O)n([C@H]2CCC(=O)NC2=O)c2cccc(N3CCC(C(=O)N4C[C@@H]5[C@H](C4)[C@H]5C(=O)NCC4(c5ccccc5)CCN(c5cnnc(-c6ccccc6O)c5)CC4)CC3)c21 (racemic) ?
Data returned: 0.61

Data request: Which DC50 reading was recorded for the molecule Cc1cc(C2(C(=O)N(C)C3CCN(CCC4CCN(c5ccc(C6CCC(=O)NC6=O)cc5)CC4)CC3)CCN(c3cnnc(-c4ccccc4O)c3)CC2)on1 (racemic) ?
Data returned: 7.76

Data request: Which DC50 reading was recorded for the molecule `CN(C(=O)C1(Oc2ccn(C)n2)CCN(c2cnnc(-c3ccccc3O)c2)CC1)C1CCN(CC2CCN(c3ccc([C@H]4CCC(=O)NC4=O)cc3)CC2)CC1` ?
Data returned: 6.01

Data request: Which DC50 reading was recorded for the molecule CC1(CN2CCC(c3ccc(C4CCC(=O)NC4=O)cc3)CC2)CCN(C(=O)C2(c3ccccc3)CCN(c3cnnc(-c4ccccc4O)c3)CC2)C1 (racemic) ?
Data returned: 22.3

Data request: Which DC50 reading was recorded for the molecule O=C1CC[C@H](c2ccc(N3CCC4(CC3)CC(N[C@H]3CC[C@H](NC(=O)C5(c6ccccc6)CCN(c6cnnc(-c7ccccc7O)c6)CC5)CC3)CO4)cc2)C(=O)N1 (mixture of isomers) ?
Data returned: 10.1

Data request: Which DC50 reading was recorded for the molecule CN(C(=O)C1(c2cnn(C)c2)CCN(c2cnnc(-c3ccccc3O)c2)CC1)C1CCN(CCC2CCN(c3ccc(C4CCC(=O)NC4=O)cc3)CC2)CC1 (racemic) ?
Data returned: 2.24

Data request: Which DC50 reading was recorded for the molecule O=C1CCC(c2ccc(N3CCOC4(CCN(CC(=O)N5CCC6(CC5)CN(C(=O)C5(c7ccccc7)CCN(c7cnnc(-c8ccccc8O)c7)CC5)C6)CC4)C3)cc2)C(=O)N1 (racemic) ?
Data returned: 68.2

Data request: Which DC50 reading was recorded for the molecule O=C1CCC(Nc2ccc(C3CCN(CC(=O)N4CCC5(CC4)CN(C(=O)C4(c6ccccc6)CCN(c6cnnc(-c7ccccc7O)c6)CC4)C5)CC3)cc2)C(=O)N1 (racemic) ?
Data returned: 23.4

Data request: Which DC50 reading was recorded for the molecule CN(C(=O)C1(c2ccccc2)CCN(c2cnnc(-c3ccccc3O)c2)CC1)C1CCN([C@@H]2COC3(CCN(c4ccc([C@H]5CCC(=O)NC5=O)cc4)CC3)C2)CC1 (single isomer, unassigned) ?
Data returned: 6.84
